test system: HEK293 cells; experiment: Preliminary screening as mRNA vectors, EGFP mRNA transfection of HEK293 cells; type: cell-based; conditions: EGFP mRNA 50 ng per well, 96-well plates; percentage of GFP fluorescent cells relative to total number of cells (Hoechst)
property_measured: Absolute mRNA transfection efficiency in HEK293 cells (%)

>  <compound>
CCCCCCCCCCCCNc1nc(NCCN2CCOCC2)nc(SCCCCCCCCC)n1

>  <readout_units>
%

>  <numeric_result>
15.2

$$$$
>  <compound>
CCCCCCCCCCCCCCCCCCSc1nc(NCCN(C)C)nc(SCCCCCC)n1

>  <readout_units>
%

>  <numeric_result>
15.9

$$$$
>  <compound>
CCCCCCCCCCCCCCSc1nc(NCCCCCCCCCCCCC)nc(NCCN(CC)CC)n1

>  <readout_units>
%

>  <numeric_result>
11.7

$$$$
>  <compound>
CCCCCCCCCSc1nc(NCCN2CCCCC2)nc(SCCCCCCC)n1

>  <readout_units>
%

>  <numeric_result>
3.7

$$$$
>  <compound>
CCCCCCCCNc1nc(NCCCN(C)C)nc(SCCCCCCCC)n1

>  <readout_units>
%

>  <numeric_result>
3.5

$$$$
>  <compound>
CCCCCCCCCCCSc1nc(NCCCCCCC)nc(NCCN2CCN(C)CC2)n1

>  <readout_units>
%

>  <numeric_result>
8.5

$$$$
>  <compound>
CCCCCCCCCCCCNc1nc(NCCN2CCCCC2)nc(SCCCCCCC)n1

>  <readout_units>
%

>  <numeric_result>
0.6

$$$$
>  <compound>
CCCCCCCCCCSc1nc(NCCN2CCOCC2)nc(SCCCCCCCC)n1

>  <readout_units>
%

>  <numeric_result>
38.8

$$$$
